The measurements presented in this section are drawn from PubChem BioAssay AID1963450.

Test system: 556581-035-R-J1-PDC complex spheroid growth;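 further: spheroids exposed to agents for 7 days before viability read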
Assay: Anticancer human tumor 556581-035-R-J1-PDC patient-derived ovarian carcinoma cell line growth inhibition [Asc]
Conditions: second compound 3.16 µM; first compound 0.00316 µM; stronger effect = lower value
Recorded viability, T/C, one value per entry.

compound	viability, T/C
O=C(c1ccc(F)c(F)c1Nc1ccc(I)cc1F)N1CC(O)([C@@H]2CCCCN2)C1 + Cc1c(S(C)(=O)=O)c(-c2cc(F)cc(N3CCN(c4ccc(NS(=O)(=O)c5ccc(NC(CCN6CCC(C(=O)OCCCP(=O)(O)O)CC6)CSc6ccccc6)c(S(=O)(=O)C(F)(F)F)c5)cc4)CC3)c2)c(-c2ccc(Cl)cc2)n1C(C)C	67.7%
CCN1CCN(Cc2ccc(Nc3ncc(F)c(-c4cc(F)c5nc(C)n(C(C)C)c5c4)n3)nc2)CC1 + Cc1c(S(C)(=O)=O)c(-c2cc(F)cc(N3CCN(c4ccc(NS(=O)(=O)c5ccc(NC(CCN6CCC(C(=O)OCCCP(=O)(O)O)CC6)CSc6ccccc6)c(S(=O)(=O)C(F)(F)F)c5)cc4)CC3)c2)c(-c2ccc(Cl)cc2)n1C(C)C	69.6%
NC1CCC(NC2CC2c2ccccc2)CC1 (centres undefined) + Cc1c(S(C)(=O)=O)c(-c2cc(F)cc(N3CCN(c4ccc(NS(=O)(=O)c5ccc(NC(CCN6CCC(C(=O)OCCCP(=O)(O)O)CC6)CSc6ccccc6)c(S(=O)(=O)C(F)(F)F)c5)cc4)CC3)c2)c(-c2ccc(Cl)cc2)n1C(C)C	64.5%
COc1c(OCCCN2CCOCC2)ccc2c3n(c(=NC(=O)c4cnc(N)nc4)nc12)CCN3 + Cc1c(S(C)(=O)=O)c(-c2cc(F)cc(N3CCN(c4ccc(NS(=O)(=O)c5ccc(NC(CCN6CCC(C(=O)OCCCP(=O)(O)O)CC6)CSc6ccccc6)c(S(=O)(=O)C(F)(F)F)c5)cc4)CC3)c2)c(-c2ccc(Cl)cc2)n1C(C)C	59%
